Quick reference: ka of the listed items.
Molecular target: T1, dimeric human PRLR (hPRLR.mFc; SEQ ID NO:402) (Homo sapiens, UniProt P16471)
T1 construct: dimeric (hPRLR.mFc)
T1 sequence (P16471 with tags, fused parts or gaps): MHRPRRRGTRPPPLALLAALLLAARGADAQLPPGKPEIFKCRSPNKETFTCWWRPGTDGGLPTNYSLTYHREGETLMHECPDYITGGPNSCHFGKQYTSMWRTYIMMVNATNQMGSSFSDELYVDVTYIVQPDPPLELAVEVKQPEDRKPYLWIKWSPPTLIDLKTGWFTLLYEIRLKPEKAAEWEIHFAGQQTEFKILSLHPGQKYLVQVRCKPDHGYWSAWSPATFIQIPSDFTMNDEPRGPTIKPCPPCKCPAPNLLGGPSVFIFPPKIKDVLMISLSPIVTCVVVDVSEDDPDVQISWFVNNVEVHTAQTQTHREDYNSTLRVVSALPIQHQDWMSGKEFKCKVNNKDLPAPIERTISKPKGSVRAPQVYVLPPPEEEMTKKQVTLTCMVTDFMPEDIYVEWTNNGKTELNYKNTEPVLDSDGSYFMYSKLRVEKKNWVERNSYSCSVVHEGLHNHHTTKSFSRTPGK
Assay: Surface plasmon resonance (Biacore T200), antibody-capture format
Format: binding
Conditions: 37° C., analyte hPRLR.mFc
State just the number; it will be interpreted in M/s.

molecule="H1H6785P: fully human anti-PRLR antibody, human IgG1 Fc; HCVR/LCVR SEQ ID NOs 98/106 (antibody, V domains shown) VH: EVQLVESGGGLVQPGGSLRLSCAASGFTFSSYEMNWVRQAPGKGLEWISYISSRGGTIYYADSIKGRFTIYRDNARNSLYLQMNSLRAEDTAIYYCARLSGVDIFDIWGQGTMVTVSS VL: DIQMTQSPSSLSASVGDRVTITCRASQGISNYLAWYQQKPGKVPKLLIYFASTLQSGVPSRFSGGGSGTDFTLTISSLQPEDVATYYCQRYNSAPLTFGGGTKVEIK" valueobserved=456000
molecule="H1H6967N: anti-PRLR antibody, human IgG1 Fc form of H2M6967N of Table 1; HCVR/LCVR SEQ ID NOs 354/362 (antibody, V domains shown, human IgG1 Fc) VH: EVQLVESGGDLVHPGRSLRLSCAASGFPFDEYAMHWVRQVPGKGLEWVSGISWSNNNIGYADSVKGRFTISRDNAKNSLYLQMNSLRPEDTAFYYCAKSGIFDSWGQGTLVTVSS VL: EIVMTQSPATLSVSPGERATLSCRASQSVSRDLAWYQQKPGQAPRLLIHGASTRATGIPARFSGSGSGAEFTLIISSLQSEDFAVYYCQQYNNWPLTFGGGTKVEIK" valueobserved=907000
molecule="H1H6792P: fully human anti-PRLR antibody, human IgG1 Fc; HCVR/LCVR SEQ ID NOs 130/138 (antibody, V domains shown) VH: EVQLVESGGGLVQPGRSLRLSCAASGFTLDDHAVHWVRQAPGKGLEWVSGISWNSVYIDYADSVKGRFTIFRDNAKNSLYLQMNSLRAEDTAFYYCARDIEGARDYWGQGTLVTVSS VL: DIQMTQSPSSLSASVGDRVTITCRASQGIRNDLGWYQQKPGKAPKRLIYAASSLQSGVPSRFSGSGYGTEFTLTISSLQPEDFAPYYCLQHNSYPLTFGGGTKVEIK" valueobserved=499000

Attention now turns to another entry.
For reference, reported ka for H1H6801P: fully human anti-PRLR antibody, human IgG1 Fc; HCVR/LCVR SEQ ID NOs 210/218 (antibody, V domains shown) VH: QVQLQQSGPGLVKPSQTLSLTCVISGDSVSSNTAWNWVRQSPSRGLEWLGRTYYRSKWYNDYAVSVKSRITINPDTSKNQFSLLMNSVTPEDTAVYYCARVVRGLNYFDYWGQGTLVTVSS VL: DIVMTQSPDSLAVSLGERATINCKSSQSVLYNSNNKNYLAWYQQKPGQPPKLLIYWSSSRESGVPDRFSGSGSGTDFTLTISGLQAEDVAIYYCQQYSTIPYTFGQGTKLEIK stands at 793000
